EC50 values by entry
MEASUREMENT_TARGET: human MCH receptor expressed from the open reading frame cDNA SEQ. ID. NO. 1 in 293-AEQ17 cells (human, UniProt Q99705 1-353)
Sequence (Q99705 whole entry): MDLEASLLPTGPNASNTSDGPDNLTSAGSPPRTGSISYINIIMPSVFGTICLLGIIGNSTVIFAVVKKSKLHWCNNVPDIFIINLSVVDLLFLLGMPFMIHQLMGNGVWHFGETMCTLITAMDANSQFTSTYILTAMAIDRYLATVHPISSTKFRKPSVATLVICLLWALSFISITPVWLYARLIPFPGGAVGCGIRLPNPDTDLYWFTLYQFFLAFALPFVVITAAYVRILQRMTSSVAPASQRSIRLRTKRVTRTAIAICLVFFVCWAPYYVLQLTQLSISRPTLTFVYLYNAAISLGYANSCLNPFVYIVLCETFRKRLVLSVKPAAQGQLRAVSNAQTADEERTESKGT
PROTOCOL_SUMMARY: cell-based or functional assay
Bridges are numbered along the chain shown (N, C = ends).
Give your result in nM as a bare value.

Solved cases below.
Ac-RCMLKRVYRPC-NH2 (disulfide 2-11 (inferred), ID; NO; 7 peptide; MCH position numbering) [MCH analog SEQ. ID. NO. 53 (position 10: Lys)]; 4500
Ac-RCMLARVYRPC-NH2 (disulfide 2-11 (inferred), ID; NO; 7 peptide; MCH position numbering) [MCH analog SEQ. ID. NO. 47 (position 10: Ala)]; 31
Ac-RCMLNRVYRPC-NH2 (disulfide 2-11 (inferred), ID; NO; 7 peptide; MCH position numbering) [MCH analog SEQ. ID. NO. 51 (position 10: Asn)]; 23

I'd like to know its EC50. The binder in question is Ac-RCMLLRVYRPC-NH2 (disulfide 2-11 (inferred), ID; NO; 7 peptide; MCH position numbering) [MCH analog SEQ. ID. NO. 48 (position 10: Leu)]
23

Then RCMLXRVYRPC (D-Pro at position 10; N-terminal acetyl, C-terminal amide, Cys-Cys disulfide as in SEQ. ID. NO. 7, ID; NO; 7 peptide; MCH position numbering) [MCH analog SEQ. ID. NO. 57 (position 10: D-Pro)] ?
190
